- Experiment Summary: chemical genetic growth profiling, strain panel (AID 1159580);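 also: tested at 20 µM; growth read once vehicle control cultures reached saturation at 30 °C; 1 = growth at the plate median or of vehicle wells; lower values mean less growth of the strain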
- Recorded Conditions: S. cerevisiae deletion strains, growth OD, locus YBR021W, strain FUR4
In all, about 5,500 compounds went through this assay and about 2,000 (36%) were called active. Roughly 18% stayed inconclusive and do not appear here. Rule as the data show it: active = normalized growth mostly below about 0.91 (no sharp cut-off); inconclusive = no clear call, values can overlap the other calls; inactive = mostly above about 0.92. Some of the results follow.
Select the correct class. Options are active, inactive and nothing else.

Consider the following illustrative entries.
Tell me the assay call for CC(=O)O[C@H]1C[C@@H](OC(C)=O)C(C)(C)C2C[C@@H](O)[C@]3(C)C(CC[C@@]4(C)[C@H](c5ccoc5)OC(=O)[C@H]5O[C@]543)[C@]21C (some centres undefined) please. inactive

Tell me the assay call for CC1[C@H](C)OC(=O)CC(O)CC(O)CC(O)CCC(O)C(O)C[C@]2(O)CC(O)C(C(=O)O)C(CC(OC3O[C@H](C)[C@@H](O)[C@H](N)[C@@H]3O)/C=C/C=C/C=C/C=C/CC/C=C/C=C/[C@H](C)[C@H]1O)O2 (some centres undefined) please. active

Tell me the assay call for NC1(C(=O)O)CC1 please. inactive

Tell me the assay call for CN1CCC[C@@H]1CCO[C@](C)(c1ccccc1)c1ccc(Cl)cc1 please. active

Tell me the assay call for Clc1ccc(C(c2ccccc2Cl)C(Cl)Cl)cc1 (centres undefined) please. inactive

Tell me the assay call for CC(=O)N[C@@H](CCC(=O)O)C(=O)O please. inactive

# ---- query molecule ----
Tell me the assay call for C[C@]12CCC3c4ccc(OC(=O)c5ccccc5)cc4CCC3C1CCC2=O (some centres undefined) please. inactive

---

- Experiment Summary: chemical genetic growth profiling, strain panel (AID 1159580)
- Recorded Conditions: S. cerevisiae deletion strains, growth OD, locus YGL240W, strain doc1
Out of some 5,500 compounds screened, about 2,000 (36%) were called active. Another 18% or so got no clear call; they are omitted. Cut-off read from the data, not from the text of the source: active = normalized growth mostly below about 0.91 (no sharp cut-off); inconclusive = no clear call, values can overlap the other calls; inactive = mostly above about 0.92. The list shows a part of the results.
Select the correct class. Options are y for active, n for inactive and nothing else.

Consider the following illustrative entries.
Tell me the assay call for COc1c(C)c2c(c(O)c1C/C=C(\C)CCC(=O)O)C(=O)OC2 please. n

Tell me the assay call for CCCCC(=O)O[C@]1(C(=O)CO)CCC2C3CCC4=CC(=O)CC[C@]4(C)C3[C@@H](O)C[C@@]21C (some centres not stated) please. n

Tell me the assay call for CC12CCC3C(=CCc4cc(O)ccc43)C1CCC2=O (configuration not stated) please. n

Further cases:
Tell me the assay call for C=NC(C(=O)NC1C(=O)N2C1SC(C)(C)C2C(=O)O)c1ccccc1 (configuration not stated) please. n

Tell me the assay call for Nc1nc(F)nc2c1ncn2[C@@H]1O[C@H](COP(=O)(O)O)[C@@H](O)[C@@H]1O please. n

---

- Experiment Summary: chemical genetic growth profiling, strain panel (AID 1159580)
- Recorded Conditions: S. cerevisiae deletion strains, growth OD, locus YBR231C, strain swc5, hits give low values
Out of some 5,500 compounds screened, about 2,000 (36%) were called active. Roughly 18% stayed inconclusive and do not appear here. The list shows a part of the results.
Experimental Endpoint: normalized growth
Respond using a number only.

The cases that follow already have their normalized growth on record.
normalized growth for O=C(O)C(O)C(O)C(=O)O (configuration not stated) ? 0.996

normalized growth for CC(C)(S)[C@@H](N)C(=O)O ? 1

normalized growth for CC12CCC3C(=CCc4cc(O)ccc43)C1CCC2=O (configuration not stated) ? 0.978

normalized growth for C1N2CN3CN1CN(C2)C3 ? 1

normalized growth for C[C@]12CCC3c4ccc(OC(=O)c5ccccc5)cc4CCC3C1CCC2=O (some centres not stated) ? 0.987

normalized growth for C[C@]12CCC3c4ccc(O)cc4CCC3C1CCC2=O (some centres not stated) ? 0.975

Further cases:
normalized growth for O=c1oc2ccccc2cc1O ? 1.01

---

- Experiment Summary: chemical genetic growth profiling, strain panel (AID 1159580)
- Recorded Conditions: S. cerevisiae deletion strains, growth OD, locus YNL175C, strain NOP13, hits give low values
Screen size: about 5,500 compounds; about 2,000 (36%) were called active. Another 18% or so got no clear call; they are omitted. The list shows a part of the results.
Measured normalized growth values are reported for all entries that follow.
Respond using a number only.

The cases that follow already have their normalized growth on record.
normalized growth for COc1cc(NS(C)(=O)=O)ccc1Nc1c2ccccc2nc2ccccc12 ? 1

normalized growth for CCCCCC(O)c1cccc(OCc2ccc3ccccc3n2)c1 (configuration not stated) ? 0.995

normalized growth for CC(C)N(CCC(=O)c1ccc2ccccc2c1)Cc1ccccc1 ? 0.111

normalized growth for CC(C)c1ccc2c(c1)c(SC(C)(C)C)c(CC(C)(C)C(=O)O)n2Cc1ccc(Cl)cc1 ? 1.01

normalized growth for CCCCS(=N)(=O)CC[C@H](N)C(=O)O (some centres not stated) ? 0.984

Further cases:
normalized growth for Brc1ccc([C@H]2CN3CCSC3=N2)cc1 ? 1.01

normalized growth for O=C(O)/C=C/C(O)c1ccc(Cl)cc1 (configuration not stated) ? 0.997

normalized growth for COc1cc2nc(N3CCN(C(=O)C4COc5ccccc5O4)CC3)nc(N)c2cc1OC (configuration not stated) ? 0.99

normalized growth for C[C@@H](Oc1ccc(Oc2cnc3ccc(Cl)cc3n2)cc1)C(=O)O ? 0.984

normalized growth for NC(=O)c1ncn(C2OC(CO)C(O)C2O)n1 (configuration not stated) ? 1.01

---

- Experiment Summary: chemical genetic growth profiling, strain panel (AID 1159580)
- Recorded Conditions: S. cerevisiae deletion strains, growth OD, locus YKL085W, strain MDH1, hits give low values
Hit rate of the full screen: of about 5,500 compounds, about 2,000 (36%) were called active. Inconclusive results (about 18%) are left out. This is one part of the list.
Measured normalized growth values are reported for all entries that follow.
Respond using a number only.

The cases that follow already have their normalized growth on record.
normalized growth for COC1C=CC23c4cc5c(cc4CN(CC2O)[C@@H]3C1)OCO5 (stereo partly drawn) ? 1.01

normalized growth for NC(=O)NC1NC(=O)NC1=O (stereo not drawn) ? 0.981

Could you now look at the following compound, please?
normalized growth for CC(=O)NCCc1c[nH]c2ccc(O)cc12 ? 0.982

---

- Experiment Summary: chemical genetic growth profiling, strain panel (AID 1159580);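 also: tested at 20 µM; growth read once vehicle control cultures reached saturation at 30 °C; 1 = growth at the plate median or of vehicle wells; lower values mean less growth of the strain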
- Recorded Conditions: S. cerevisiae deletion strains, growth OD, locus YLR330W, strain CHS5, hits give low values
The campaign covered roughly 5,500 compounds. About 2,000 (36%) were called active. Inconclusive results (about 18%) are left out. The list shows a part of the results.
Experimental Endpoint: normalized growth
Respond using a number only.

The cases that follow already have their normalized growth on record.
normalized growth for c1ccc2c(CC3=NCCN3)cccc2c1 ? 1.01

normalized growth for O=C(O)C(O)C(O)C(=O)O (stereo unspecified) ? 0.991

Further cases:
normalized growth for CCC(C)C(=O)c1c(O)c(C)c2oc3c(C)c(O)c(C(=O)C(C)CC)c(O)c3c2c1O (stereo unspecified) ? 0.979

normalized growth for NC(N)=NCCCCN=C(N)N ? 0.993

normalized growth for CCN1C[C@@]2(COC)C3[C@@H](OC)[C@H]4[C@@H]1[C@]3(C(OC)C[C@H]2O)C1C[C@@]2(O)[C@H](OC(=O)c3ccccc3)C1[C@]4(OC(C)=O)[C@@H](O)[C@@H]2OC (stereo partly specified) ? 1.02

normalized growth for CN(C)C(=O)Oc1ccc[n+](C)c1 ? 1.01

---

- Experiment Summary: chemical genetic growth profiling, strain panel (AID 1159580);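 also: tested at 20 µM; growth read once vehicle control cultures reached saturation at 30 °C; 1 = growth at the plate median or of vehicle wells; lower values mean less growth of the strain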
- Recorded Conditions: S. cerevisiae deletion strains, growth OD, locus YDL028C, strain MPS1, hits give low values
Screen size: about 5,500 compounds; about 2,000 (36%) were called active. Roughly 18% stayed inconclusive and do not appear here. Some of the results follow.
Measured normalized growth values are reported for all entries that follow.
Respond using a number only.

The cases that follow already have their normalized growth on record.
normalized growth for FC(F)(F)c1cc(NC(=S)SCCSC(=S)Nc2cc(C(F)(F)F)cc(C(F)(F)F)c2)cc(C(F)(F)F)c1 ? 0.991

normalized growth for CCOC(=O)c1sc(S(C)=NC(=O)Nc2ccc(Cl)cc2)c2c1CCC=C2 (stereo not given) ? 0.971

normalized growth for COc1ccc(-c2cn3cc(C)ccc3n2)cc1 ? 0.986

normalized growth for C/C(=N/NC(=S)NCC(C)(C)C)c1cc(F)cc(Cl)c1O ? 0.959

normalized growth for Clc1ccccc1-c1csc(-c2cccnc2)n1 ? 0.923

Could you now look at the following molecule, please?
normalized growth for Clc1ccc(Oc2ccnc3cc(Cl)ccc23)cc1 ? 0.926

---

Measured normalized growth values are reported for all entries that follow.
- Experiment Summary: chemical genetic growth profiling, strain panel (AID 1159580);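 also: tested at 20 µM; growth read once vehicle control cultures reached saturation at 30 °C; 1 = growth at the plate median or of vehicle wells; lower values mean less growth of the strain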
- Recorded Conditions: S. cerevisiae deletion strains, growth OD, locus YLR384C, strain iki3, hits give low values
The campaign covered roughly 5,500 compounds. About 2,000 (36%) were called active. Inconclusive results (about 18%) are left out. Some of the results follow.
Respond using a number only.

normalized growth for Clc1ccccc1CN1CCc2sccc2C1 ? 1.01

normalized growth for COC1C=CC23c4cc5c(cc4CN(CC2O)[C@@H]3C1)OCO5 (some centres undefined) ? 0.966

normalized growth for Cc1ccc(C(=O)c2ccc(CC(=O)O)n2C)cc1 ? 1.01

Could you now look at the following compound, please?
normalized growth for CCCCCCCCCCCCCC(=O)OC1C(C)C2(O)C(C=C(CO)CC3(O)C(=O)C(C)=CC32)C2C(C)(C)C12OC(C)=O (centres undefined) ? 0.99
